Tested on: 134 cancer cell lines
ASSAY TEXT: Cell viability assay (ATPlite, 72 hours), IC50 on cancer cell line panel
CONDITIONS: Homo sapiens, RPMI-7951, read-out: IC50 in cell proliferation assay

{"SMILES INPUT": "CNC(=O)c1ccc(-c2cnc3ncc(Cc4ccc5ncccc5c4)n3n2)cc1F", "TARGET DESC": "134 cancer cell lines", "IC50": "> 31.6 µM"}
{"SMILES INPUT": "C=CC(=O)N1CCC[C@@H](n2nc(-c3ccc(Oc4ccccc4)cc3)c3c(N)ncnc32)C1", "TARGET DESC": "134 cancer cell lines", "IC50": "26.9 µM"}
{"SMILES INPUT": "CC#CC(=O)N1CCC[C@H]1c1nc(-c2ccc(C(=O)Nc3ccccn3)cc2)c2c(N)nccn12", "TARGET DESC": "134 cancer cell lines", "IC50": "> 31.6 µM"}

---

Some molecules, each annotated with its measured inhibition at 1 µM.
TARGET DESC: UniProtKB O75582
Sequence (O75582 whole entry): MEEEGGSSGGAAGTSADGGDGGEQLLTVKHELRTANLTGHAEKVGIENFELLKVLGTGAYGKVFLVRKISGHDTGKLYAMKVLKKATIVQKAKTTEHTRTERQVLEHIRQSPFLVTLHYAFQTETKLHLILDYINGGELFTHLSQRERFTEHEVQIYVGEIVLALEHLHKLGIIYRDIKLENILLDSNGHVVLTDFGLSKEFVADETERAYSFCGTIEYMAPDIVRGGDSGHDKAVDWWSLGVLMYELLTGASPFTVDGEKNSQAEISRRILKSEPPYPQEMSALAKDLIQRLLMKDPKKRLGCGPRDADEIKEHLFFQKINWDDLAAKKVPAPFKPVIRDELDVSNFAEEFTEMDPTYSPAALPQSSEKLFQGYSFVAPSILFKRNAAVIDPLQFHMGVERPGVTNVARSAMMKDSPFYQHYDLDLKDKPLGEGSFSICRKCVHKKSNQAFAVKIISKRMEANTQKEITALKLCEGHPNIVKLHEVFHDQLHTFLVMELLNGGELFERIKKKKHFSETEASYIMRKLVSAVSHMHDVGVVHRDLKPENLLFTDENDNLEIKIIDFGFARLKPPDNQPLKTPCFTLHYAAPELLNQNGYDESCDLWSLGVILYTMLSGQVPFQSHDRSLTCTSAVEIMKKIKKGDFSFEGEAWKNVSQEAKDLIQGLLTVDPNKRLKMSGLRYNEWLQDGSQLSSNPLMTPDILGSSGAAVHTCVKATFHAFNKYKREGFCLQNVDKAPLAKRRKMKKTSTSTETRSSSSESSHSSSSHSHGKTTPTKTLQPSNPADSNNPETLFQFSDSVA
ASSAY TEXT: Kinase panel profiling at 1 µmol/L (MSA or IMAP), percentage inhibition
Assay type: biochemical
CONDITIONS: MSK1; 1 µmol/L single concentration; read-out: %-inhibition, MSK1

{"SMILES INPUT": "Cn1cnc2c(F)c(Nc3ccc(Br)cc3Cl)c(C(=O)NOCCO)cc21", "TARGET DESC": "UniProtKB O75582", "UNIT SPEC": "%", "inhibition at 1 µM": 3}
{"SMILES INPUT": "CCn1c(=O)c(-c2cc(NC(=O)Nc3ccccc3)c(F)cc2Br)cc2cnc(NC)cc21", "TARGET DESC": "UniProtKB O75582", "UNIT SPEC": "%", "inhibition at 1 µM": 14}
{"SMILES INPUT": "CO[C@]1(C(=O)N[C@@H](C)c2ccc(-n3cc(F)cn3)nc2)CC[C@H](c2nc(C)cc(Nc3cc(C)[nH]n3)n2)CC1", "TARGET DESC": "UniProtKB O75582", "UNIT SPEC": "%", "inhibition at 1 µM": 10}
{"SMILES INPUT": "Cc1nc(NC(=O)N2CCC[C@H]2C(N)=O)sc1-c1ccnc(C(C)(C)C(F)(F)F)c1", "TARGET DESC": "UniProtKB O75582", "UNIT SPEC": "%", "inhibition at 1 µM": -8}
{"SMILES INPUT": "Cn1cnc2c(F)c(Nc3ccc(Br)cc3F)c(C(=O)NOCCO)cc21", "TARGET DESC": "UniProtKB O75582", "UNIT SPEC": "%", "inhibition at 1 µM": 10}
{"SMILES INPUT": "CCN1CCN(c2ccc(Nc3cc(N(C)C(=O)Nc4c(Cl)c(OC)cc(OC)c4Cl)ncn3)cc2)CC1", "TARGET DESC": "UniProtKB O75582", "UNIT SPEC": "%", "inhibition at 1 µM": 2.27}
{"SMILES INPUT": "CN1CCN(c2ccc(C(=O)Nc3n[nH]c4ccc(Cc5cc(F)cc(F)c5)cc34)c(NC3CCOCC3)c2)CC1", "TARGET DESC": "UniProtKB O75582", "UNIT SPEC": "%", "inhibition at 1 µM": 0.468}
{"SMILES INPUT": "FC(F)(F)c1ccc(CNc2ccc(Cc3c[nH]c4ncc(Cl)cc34)cn2)cn1", "TARGET DESC": "UniProtKB O75582", "UNIT SPEC": "%", "inhibition at 1 µM": 10}
